Target: Type-2 angiotensin II receptor (Rattus norvegicus)
Sequence (P35351 whole entry): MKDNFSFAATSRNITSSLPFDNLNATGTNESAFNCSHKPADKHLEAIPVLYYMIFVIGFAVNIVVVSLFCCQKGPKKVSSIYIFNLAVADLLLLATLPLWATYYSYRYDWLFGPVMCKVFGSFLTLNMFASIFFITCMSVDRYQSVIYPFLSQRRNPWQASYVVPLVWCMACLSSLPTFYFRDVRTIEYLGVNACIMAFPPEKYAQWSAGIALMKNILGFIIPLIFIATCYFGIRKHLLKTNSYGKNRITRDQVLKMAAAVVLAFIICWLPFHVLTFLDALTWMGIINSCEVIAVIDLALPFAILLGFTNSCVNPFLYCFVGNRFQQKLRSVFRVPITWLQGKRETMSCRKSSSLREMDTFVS
Assay: In vitro binding affinity determined by its ability to displace the specific binding ligand [125I]-Sar1, Ile8-AII from AT2 receptor in rat midbrain membranes
pIC50: −log10 of the molar value.
Metric: pIC50

Example results:
# Smiles Record, pIC50
rows = [
    ("CCCCCC(=O)NS(=O)(=O)c1ccccc1-c1ccc(Cn2c(CCCC)nc3cc(NC(=O)CCCC)cnc32)cc1", 8.57),
    ("CCCCOC(=O)NS(=O)(=O)c1ccccc1-c1ccc(Cn2c(CCC)nc3c(C)c(NC(=O)CCC)cnc32)cc1", 8.25),
    ("CCCC(=O)Nc1c(C)nc2c(nc(CCC)n2Cc2ccc(-c3ccccc3S(=O)(=O)NC(=O)CCC3CCCC3)cc2)c1C", 9.60),
    ("CCCCc1nc2cc(NC(=O)N(c3ccccc3)c3ccccc3)c(C)nc2n1Cc1ccc(-c2ccccc2-c2nn[nH]n2)cc1", 6.29),
]

(I) CCc1nc2c(C)cc(C)nc2n1Cc1ccc(-c2ccccc2S(=O)(=O)NC(=O)CCC2CCCC2)cc1
(II) CCCCC(=O)Nc1cc2nc(CCCC)n(Cc3ccc(-c4ccccc4S(=O)(=O)NC(=O)CCC4CCCC4)cc3)c2nc1C
Data request: Which value of pIC50 is smaller, the one for I or the one for II ? Choose, then provide that item's label.
Data returned: I
